Give measured binding signal for each item. Keep answers brief.
EXPERIMENTAL SYSTEM: d-enCas12a-Ultra (Acidaminococcus sp., UniProt U2UMQ6 1-1307, E174R;S542R;K548R;M537R;F870L;D908A;E993A;D1235A)
RUN DESCRIPTION: Spec-seq (native PAGE EMSA with sequencing of bound and unbound); 25 mM Tris-HCl pH 7.4, 150 mM KCl, 5 mM MgCl2, 10% glycerol, 1 mM DTT, 40 ng/uL salmon sperm DNA; 400 nM Cas12a, 480 nM crRNA, 50 nM library, 37 C 1 h; native PAGE at room temperature; high values mean tight binding;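 also: relative affinity from the bound to unbound sequence frequency ratio in Spec-seq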
MEASUREMENT SETUP: protein: recombinant
Answers are plain numbers, in lnKA.

{"columns": ["BINDER", "binding signal (lnKA)"],
 "data": [
  ["TTGC (dsDNA) DNA 1: GCTATCTAGTGCTCAGTACGCACTGTTGCAGGAAACTTCTGGCAGGACCAGGTCATGAGATCGGAAGAGCACACGTCTGAACTCCAGTCA DNA 2: TGACTGGAGTTCAGACGTGTGCTCTTCCGATCTCATGACCTGGTCCTGCCAGAAGTTTCCTGCAACAGTGCGTACTGAGCACTAGATAGC RNA: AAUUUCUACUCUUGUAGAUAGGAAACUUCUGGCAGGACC", -0.707]
]}

Here is another binder to look at.
Noted for TGCG (dsDNA) DNA 1: GCTATCTAGTGCTCAGTACGCACTGTGCGAGGAAACTTCTGGCAGGACCAGGTCATGAGATCGGAAGAGCACACGTCTGAACTCCAGTCA DNA 2: TGACTGGAGTTCAGACGTGTGCTCTTCCGATCTCATGACCTGGTCCTGCCAGAAGTTTCCTCGCACAGTGCGTACTGAGCACTAGATAGC RNA: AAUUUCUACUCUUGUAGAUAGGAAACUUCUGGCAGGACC : its binding signal reads -0.977

Provenance of the data: paper PMC8222333
